Tested on: Herpes simplex II virus
Assay: Back titration plaque assay: PFU counts at stated amounts of compound under test and arginine
Format: cell-based, Herpes simplex II virus (BSC cells)
Conditions: compound 10 μg/ml; arginine 10 μg/ml
Property Name: P.F.U. Count

>>> result_number("CC(N)CCCCC(N)C(=O)O (centres unmarked) [drawing 18]")
610
>>> result_number("NCCCCCC(N)C(=O)O (centres unmarked) [drawing 17]")
290

* * *

Test system: Herpes simplex II virus
Experiment: Back titration plaque assay: PFU counts at stated amounts of compound under test and arginine
Assay type: cell-based, Herpes simplex II virus (BSC cells)
Details: compound 300 μg/ml; arginine 7.5 μg/ml
Property Name: P.F.U. Count

>>> result_number("CC(CN)CC[C@H](N)C(=O)O (some centres unmarked) [5-Methyl lysine]")
0
>>> result_number("CC(N)CCCC(N)C(=O)O (centres unmarked) [6-Methyl lysine]")
0
>>> result_number("NCCCCCC(N)C(=O)O (centres unmarked) [drawing 17]")
0
>>> result_number("CC(N)CCCCC(N)C(=O)O (centres unmarked) [drawing 18]")
0

* * *

System: Herpes simplex II virus
Experiment: Back titration plaque assay: PFU counts at stated amounts of compound under test and arginine
Type: cell-based, Herpes simplex II virus (BSC cells)
Conditions: compound 300 μg/ml; arginine 20 μg/ml
Entries and their P.F.U. Count
Property Name: P.F.U. Count

>>> result_number("NCCCCCC(N)C(=O)O (centres unmarked) [drawing 17]")
0
>>> result_number("CC(N)CCCCC(N)C(=O)O (centres unmarked) [drawing 18]")
163

* * *

# P.F.U. Count annotations
System: Herpes simplex II virus
Assay: Back titration plaque assay: PFU counts at stated amounts of compound under test and arginine
Type: cell-based, Herpes simplex II virus (BSC cells)
Conditions: compound 10 μg/ml; arginine 25 μg/ml
Property Name: P.F.U. Count

>>> result("CC(N)CCCCC(N)C(=O)O (centres unmarked) [drawing 18]")
"2.8 × 10^5"
>>> result("CC(CN)CC[C@H](N)C(=O)O (some centres unmarked)")
"3.0 × 10^5"
>>> result("NCCCCCC(N)C(=O)O (centres unmarked) [drawing 17]")
"2.8 × 10^5"
>>> result("CC(CCN)CC(N)C(=O)O (centres unmarked)")
"3.3 × 10^5"
>>> result("CC(N)CCCC(N)C(=O)O (centres unmarked)")
"2.7 × 10^5"

* * *

System: HSV, Type II
Assay: Direct plaque-forming unit (PFU) count in BSC cells in defined media with set lysine (or derivative):arginine ratio
Type: cell-based
Conditions: Compound Ratio to Arginine 10:1; average of three tests
Listing of recorded P.F.U. Count by entry.
Property Name: P.F.U. Count

>>> result_number("CC(CCN)CC(N)C(=O)O (centres unmarked) [4-Methyl lysine]")
541
>>> result_number("CC(CN)CC[C@H](N)C(=O)O (some centres unmarked) [5-Methyl lysine]")
79

* * *

System: HSV, Type II
Experiment: Direct plaque-forming unit (PFU) count in BSC cells in defined media with set lysine (or derivative):arginine ratio
Format: cell-based
Settings: Compound Ratio to Arginine 100:1; average of three tests
Property Name: P.F.U. Count

>>> result("NCCCCCC(N)C(=O)O (centres unmarked) [drawing 16]")
"<5"
>>> result("CC(CCN)CC(N)C(=O)O (centres unmarked) [4-Methyl lysine]")
140
>>> result("CC(N)CCCC(N)C(=O)O (centres unmarked) [6-Methyl lysine]")
"<5"
>>> result("CC(CN)CC[C@H](N)C(=O)O (some centres unmarked) [5-Methyl lysine]")
43
>>> result("CC(N)CCCCC(N)C(=O)O (centres unmarked) [drawing 15]")
"<5"
